Molecular target: T1, human CD131 (human, UniProt P32927 17-897)
T1 sequence: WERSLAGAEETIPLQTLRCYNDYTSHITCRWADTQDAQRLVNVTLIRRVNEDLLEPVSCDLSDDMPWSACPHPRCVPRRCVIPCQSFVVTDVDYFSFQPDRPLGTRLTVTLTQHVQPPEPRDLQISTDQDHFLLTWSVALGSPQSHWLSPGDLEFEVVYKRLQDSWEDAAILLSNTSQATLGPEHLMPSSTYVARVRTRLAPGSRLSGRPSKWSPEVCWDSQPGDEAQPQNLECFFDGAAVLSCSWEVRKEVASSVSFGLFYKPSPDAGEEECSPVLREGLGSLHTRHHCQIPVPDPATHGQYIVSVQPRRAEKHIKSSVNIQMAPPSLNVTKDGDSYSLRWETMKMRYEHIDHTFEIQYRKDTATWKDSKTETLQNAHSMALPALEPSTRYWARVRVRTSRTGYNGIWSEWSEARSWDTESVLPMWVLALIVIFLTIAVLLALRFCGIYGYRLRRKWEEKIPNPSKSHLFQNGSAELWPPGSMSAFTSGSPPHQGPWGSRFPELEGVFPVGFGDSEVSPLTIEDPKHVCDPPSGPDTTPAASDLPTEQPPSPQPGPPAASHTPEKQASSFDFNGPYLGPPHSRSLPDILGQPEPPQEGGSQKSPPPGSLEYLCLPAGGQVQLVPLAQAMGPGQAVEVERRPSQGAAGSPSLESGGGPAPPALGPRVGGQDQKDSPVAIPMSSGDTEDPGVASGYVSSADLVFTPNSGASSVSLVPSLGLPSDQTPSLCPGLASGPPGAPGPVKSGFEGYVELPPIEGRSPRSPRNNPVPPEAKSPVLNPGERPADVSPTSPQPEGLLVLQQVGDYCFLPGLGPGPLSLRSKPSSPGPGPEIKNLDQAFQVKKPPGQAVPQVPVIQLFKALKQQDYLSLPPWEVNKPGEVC
Assay: cell-based or functional assay
VALUE KIND: IC50 GM-CSF, TF-1 proliferation (nM)
Numbers only, in nM.

Some entries whose results are on file:
BINDER	VALUE KIND	UNIT DESCRIPTOR	VALUE REPORTED
9A2-VR4 (antibody, V domains shown) VH: EVQLLESGGGLVQPGGSLRLSCAASGFTFSHYHMLWVRQAPGKGLEWVSSIRSSGGFTYYADSVKGRFTISRDNSKNTLYLQMNSLRAEDTAVYYCARFYDSFFDIWGQGTMVTVSS VL: DIQMTQSPSSVSASVGDRVTITCRASQGIRPFVDWYQQKPGKAPKLLIYAASSLQSGVPSRFSGSGSGTDFTLTISSLQPEDFATYYCQQANSFPITFGQGTRLEIKR	IC50 GM-CSF, TF-1 proliferation	nM	122
9A2-VR43 (antibody, V domains shown) VH: EVQLLESGGGLVQPGGSLRLSCAASGFTFSHYHMLWVRQAPGKGLEWVSSIRSSGGFTYYADSVKGRFTISRDNSKNTLYLQMNSLRAEDTAVYYCARFYSDHFDIWGQGTMVTVSS VL: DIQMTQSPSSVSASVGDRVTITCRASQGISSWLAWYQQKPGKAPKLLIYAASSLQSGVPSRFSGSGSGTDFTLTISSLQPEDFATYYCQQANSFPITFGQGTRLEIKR	IC50 GM-CSF, TF-1 proliferation	nM	53.7

Which IC50 GM-CSF, TF-1 proliferation reading was recorded for the binder 9A2-VR45 (antibody, V domains shown) VH: EVQLLESGGGLVQPGGSLRLSCAASGFTFSHYHMLWVRQAPGKGLEWVSSIRSSGGFTYYADSVKGRFTISRDNSKNTLYLQMNSLRAEDTAVYYCARFYSDNFDIWGQGTMVTVSS VL: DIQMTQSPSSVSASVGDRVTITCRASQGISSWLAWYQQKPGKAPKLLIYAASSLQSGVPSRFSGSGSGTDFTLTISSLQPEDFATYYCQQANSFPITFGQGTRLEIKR ? 88.7
